test system: MCF7 breast; test: NCI-60 one-dose screen, 48 h; conditions: 10 µM unless noted
This is part of a sample that, as a whole, favours compounds with a hit. Of some 83,000 tested, about 20% had one in any assay. The source made the active and inactive calls. The calls were made as follows: active = growth percent below 10; inactive = the rest.
In this exercise, the only acceptable responses are true for active, false for inactive

Would you please look over these solved cases?
COc1ccc2cc(-c3cc(OC)c(OC)c(OC)c3)c(=O)oc2c1 : false
COc1cccc(-c2nn(-c3ccccc3)cc2-c2ccnc(NCCNC(=O)Nc3ccc(Cl)c(Cl)c3)c2)c1 : true
COc1ccc(C2c3ccc4ccccc4c3Oc3nc(C)[nH]c(=O)c32)cc1 (stereo unspecified) : false
O=c1[nH]ccc2nc(N3CCC(O)CC3)nc(Nc3ccc(N4CCOCC4)cc3)c12 : false
COc1cc2nc(Cl)nc(Nc3ccc(S(=O)(=O)Nc4nccs4)cc3)c2cc1OC : false

Here's the next entry for you.
Which outcome was entered for the molecule COc1ccc2nc(NNC(=O)c3cnccn3)c3cccn3c2c1 in this test? true

* * *

tested on: NCI-H460 lung; test: NCI-60 one-dose screen, 48 h; conditions: 10 µM unless noted
This is part of a sample that, as a whole, favours compounds with a hit. Of some 83,000 tested, about 20% had one in any assay. The source made the active and inactive calls. The calls were made as follows: active = growth percent below 10; inactive = the rest.
Outcome field: choose from YES for active, NO for inactive

N#Cc1c(N)nn(C(=O)c2ccc(NC(=O)c3ccccn3)cc2)c1-c1ccc(Cl)cc1 : NO

For this molecule, state the assay outcome: NS(=O)(=O)c1cnccc1Oc1cccc2cccnc12 NO

What classification did CC(=O)c1ccc(NCC(=O)Nc2ccccn2)cc1 end up with in this test? NO

Recorded call for O=C1/C(=C/c2ccccc2)CCc2nc3ccccc3c(/C=C/c3ccc(Cl)cc3)c21 ? NO

Dear colleague, could you share the recorded outcome for CCCCCCCCCCCCCCCCCC1=NCCN1CCOC1=C(Cl)C(=O)c2ccccc2C1=O when you have a moment? NO

Just curious, what result did Cc1c(C(=O)OC(=NC2CCCCC2)NC2CCCCC2)sc2c1c(=O)nc1c(C#N)n[nH]n12 get here? NO

* * *

test system: ACHN renal; assay: NCI-60 one-dose screen, 48 h; conditions: 10 µM unless noted
This is part of a sample that, as a whole, favours compounds with a hit. Of some 83,000 tested, about 20% had one in any assay. The source made the active and inactive calls. The calls were made as follows: active = growth percent below 10; inactive = the rest.
Response enum: yes (1) (active), no (0) (inactive)

N#CCN1C(=O)C2C3=C(CCCC3)SC2N=C1CN1CCCC1 (stereo not given) : no (0)
Cc1ccc(-c2c(-c3ccccc3)c(=O)oc3ccc(C)cc23)cc1 : no (0)
COC(=O)[C@]12CC[C@@H](C)[C@H](C)[C@@H]1C1=CC[C@@H]3[C@@]4(C)C(C=O)=C[C@@](C)(COC(C)=O)C4=CC[C@@]3(C)[C@]1(C)CC2 : yes (1)
COc1ccc(-c2csc(C3=C(O)CN(CCCN4CCCC4=O)C3=N)n2)cc1OC : no (0)

Could you please tell me the result logged for O=C(CC(SCc1ccccc1)c1ccccc1)c1ccccc1 (stereo not given) in this assay? no (0)

* * *

tested on: HCC-2998 colon; assay: NCI-60 one-dose screen, 48 h (100 = growth as untreated, 0 = no growth, -100 = all killed); conditions: 10 µM unless noted
This is part of a sample that, as a whole, favours compounds with a hit. Of some 83,000 tested, about 20% had one in any assay.
Recorded metric: growth (%)
Just the number please, in %, no unit attached.

Examples with answers:
C=C1C(=O)O[C@H]2[C@H]1CC/C(COC(=O)C(=O)c1c[nH]c3ccccc13)=C\CC[C@@]1(C)O[C@@H]21 : -79.5
COc1cc(N=Nc2ccc(N)cc2)c(OC)cc1N=Nc1ccccc1.[Cl][Zn][Cl] : 98.9
CCN1C(=O)N(CC)C2Nn3c(s/c(=C\c4ccc(Cl)cc4Cl)c3=O)=NC21 (stereo not given) : 73.9

Field request: growth | item: N#Cc1nc(C#N)c(Sc2ccccc2)c(Sc2ccccc2)c1Sc1ccccc1 -85.4

Query (compound): CC/C=C\C/C=C\C[C@H](O)C/C=C1/C(=O)C=C[C@@H]1C/C=C\CCCC(=O)O ; field requested: growth -22

# query: growth of entry COc1ccc(NC(=O)CSc2nc(C)c(C(C)=O)n2-c2ccc([N+](=O)[O-])cc2)cc1 105
